- System: Staphylococcus aureus
- experimental.details: Antibacterial activity against erythromycin-susceptible Staphylococcus aureus ATCC 25923
- Type: functional
Quick rule for you: MIC under 2 µg/mL gets condition met, anything else gets condition not met.

Request: Report whether reported MIC is lower than 2 µg/mL (strictly) for CC[C@H]1OC(=O)[C@H](C)[C@@H](O[C@H]2C[C@@](C)(OC)[C@@H](OC(=O)NCc3cn(Cc4ccc(C)cc4)nn3)[C@H](C)O2)[C@H](C)[C@@H](O[C@@H]2O[C@H](C)C[C@H](N(C)C)[C@H]2O)[C@](C)(O)C[C@@H](C)CN(C)[C@H](C)[C@H]2OC(=O)O[C@@]21C
Response: condition not met

Request: Report whether reported MIC is lower than 2 µg/mL (strictly) for CC[C@H]1OC(=O)[C@H](C)[C@@H](O[C@H]2C[C@@](C)(OC)[C@@H](OC(=O)NCc3cn(Cc4ccc(C)cc4)nn3)[C@H](C)O2)[C@H](C)[C@@H](O[C@@H]2O[C@H](C)C[C@H](N(C)C)[C@H]2O)[C@](C)(O)C[C@@H](C)CN(C)[C@H](C)[C@@H](OC(=O)NCc2ccc(OC)cc2)[C@]1(C)O
Response: condition met

Request: Report whether reported MIC is lower than 2 µg/mL (strictly) for CC[C@H]1OC(=O)[C@H](C)[C@@H](O[C@H]2C[C@@](C)(OC)[C@@H](OC(=O)NCc3cn(Cc4cccc(Cl)c4)nn3)[C@H](C)O2)[C@H](C)[C@@H](O[C@@H]2O[C@H](C)C[C@H](N(C)C)[C@H]2O)[C@](C)(O)C[C@@H](C)CN(C)[C@H](C)[C@@H](O)[C@]1(C)O
Response: condition met

Request: Report whether reported MIC is lower than 2 µg/mL (strictly) for CC[C@H]1OC(=O)[C@H](C)[C@@H](O[C@H]2C[C@@](C)(OC)[C@@H](OC(=O)NCc3cn(Cc4cccc(Cl)c4)nn3)[C@H](C)O2)[C@H](C)[C@@H](O[C@@H]2O[C@H](C)C[C@H](N(C)C)[C@H]2O)[C@](C)(O)C[C@@H](C)CN(C)[C@H](C)[C@H]2OC(=O)O[C@@]21C
Response: condition not met

Request: Report whether reported MIC is lower than 2 µg/mL (strictly) for CC[C@H]1OC(=O)[C@H](C)[C@@H](O[C@H]2C[C@@](C)(OC)[C@@H](O)[C@H](C)O2)[C@H](C)[C@@H](O[C@@H]2O[C@H](C)C[C@H](N(C)C)[C@H]2O)[C@](C)(OC)C[C@@H](C)C(=O)[C@H](C)[C@@H](O)[C@]1(C)O [CLARITHROMYCIN]
Response: condition met

====

Please respond with reported MIC for every item in the list.
- Tested on: Streptococcus pneumoniae
- experimental.details: Antibacterial activity against erythromycin-susceptible Streptococcus pneumoniae ATCC 49619
- Format: functional
Give a bare numeral; the unit µg/mL is implied.

CC[C@H]1OC(=O)[C@H](C)[C@@H](O[C@H]2C[C@@](C)(OC)[C@@H](OC(=O)NCc3cn(Cc4ccccc4)nn3)[C@H](C)O2)[C@H](C)[C@@H](O[C@@H]2O[C@H](C)C[C@H](N(C)C)[C@H]2O)[C@](C)(O)C[C@@H](C)CN(C)[C@H](C)[C@@H](OC(=O)NCc2ccccc2)[C@]1(C)O has a reported MIC of 0.125

CC[C@H]1OC(=O)[C@H](C)[C@@H](O[C@H]2C[C@@](C)(OC)[C@@H](OC(=O)NCc3cn(Cc4ccc([N+](=O)[O-])cc4)nn3)[C@H](C)O2)[C@H](C)[C@@H](O[C@@H]2O[C@H](C)C[C@H](N(C)C)[C@H]2O)[C@](C)(O)C[C@@H](C)CN(C)[C@H](C)[C@@H](O)[C@]1(C)O has a reported MIC of 1
